The reported measurements were obtained from paper PMC11645656.

Listed here are molecules together with their documented Hill coefficient.
Biological target: MRGPRX4 (S83) (Homo sapiens, UniProt Q96LA9, L83S)
Construct: expressed in transfected cells
Sequence (Q96LA9 whole entry L83S): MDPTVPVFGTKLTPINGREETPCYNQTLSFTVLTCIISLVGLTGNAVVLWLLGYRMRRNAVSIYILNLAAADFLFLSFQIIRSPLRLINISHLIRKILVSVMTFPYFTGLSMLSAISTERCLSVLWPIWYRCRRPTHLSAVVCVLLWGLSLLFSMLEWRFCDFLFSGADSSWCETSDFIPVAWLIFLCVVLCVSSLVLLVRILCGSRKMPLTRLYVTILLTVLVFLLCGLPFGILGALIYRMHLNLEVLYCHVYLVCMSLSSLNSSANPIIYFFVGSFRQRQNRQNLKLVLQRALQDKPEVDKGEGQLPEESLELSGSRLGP
Assay: EC50 determination, intracellular calcium mobilization in MRGPRX4 stably expressed HEK293 cells (FLIPR Calcium 5, Flexstation-3)
Format: cell-based
Conditions: dose-response curve fitting, table S1

Consider the following illustrative entries.
CNC[C@H](O)[C@@H](O)[C@H](O)[C@H](O)CO.CNC[C@H](O)[C@@H](O)[C@H](O)[C@H](O)CO.C[C@@H](O[C@H]1OCCN(Cc2nn(P(=O)(O)O)c(=O)[nH]2)[C@H]1c1ccc(F)cc1)c1cc(C(F)(F)F)cc(C(F)(F)F)c1 [Fosaprepitant dimeglumine]; 3.670
C[C@]12CCC(=O)C=C1CC[C@@H]1[C@@H]2[C@@H](O)C[C@@]2(C)[C@H]1CC[C@]2(O)C(=O)COP(=O)([O-])[O-].[Na+].[Na+] [Hydrocortisone sodium phosphate]; 1.411
O=C1NC(c2ccccc2)(c2ccccc2)C(=O)N1COP(=O)(O)O [Fosphenytoin]; 1.917
Cn1nnc(-c2ccc(-c3ccc(N4C[C@H](COP(=O)(O)O)OC4=O)cc3F)cn2)n1 [Tedizolid phosphate]; 1.352
C[C@]12C=CC(=O)C=C1CC[C@@H]1[C@@H]2[C@@H](O)C[C@@]2(C)[C@H]1CC[C@]2(O)C(=O)COP(=O)(O)O [Prednisolone phosphate]; 0.753

Could you now look at the following molecule, please?
Q) So what does the record say about Hill coefficient for CC(C)c1cccc(C(C)C)c1OCOP(=O)(O)O [Fospropofol] ?
A) 0.800

====

Biological target: MRGPRX4 (S83) (Homo sapiens, UniProt Q96LA9, L83S)
Construct: expressed in transfected cells
Experiment: EC50 determination, intracellular calcium mobilization in MRGPRX4 stably expressed HEK293 cells (FLIPR Calcium 5, Flexstation-3)
Format: cell-based
Conditions: table S1; read-out: EC50
endpointLabel: EC50

Q) So what does the record say about EC50 for C[C@]12CCC(=O)C=C1CC[C@@H]1[C@@H]2[C@@H](O)C[C@@]2(C)[C@H]1CC[C@]2(O)C(=O)COC(=O)CCC(=O)O [Hydrocortisone 21-hemisuccinate] ?
A) > 500 µM

====

Target: MRGPRX4 (S83) (Homo sapiens, UniProt Q96LA9, L83S)
Construct: expressed in transfected cells
Assay: EC50 determination, intracellular calcium mobilization in MRGPRX4 stably expressed HEK293 cells (FLIPR Calcium 5, Flexstation-3)
Format: cell-based
Settings: MRGPRX4 stably expressed HEK293 cells, calcium mobilization; read-out: EC50
Listed here are molecules together with their documented EC50.
Enter your answer as a number in nM; do not include the unit.

Cn1nnc(-c2ccc(-c3ccc(N4C[C@H](COP(=O)(O)O)OC4=O)cc3F)cn2)n1 [Tedizolid phosphate]; 157
C[C@]12CCC(=O)C=C1CC[C@@H]1[C@@H]2[C@@H](O)C[C@@]2(C)[C@H]1CC[C@]2(O)C(=O)COP(=O)([O-])[O-].[Na+].[Na+] [Hydrocortisone sodium phosphate]; 328
CNC[C@H](O)[C@@H](O)[C@H](O)[C@H](O)CO.CNC[C@H](O)[C@@H](O)[C@H](O)[C@H](O)CO.C[C@@H](O[C@H]1OCCN(Cc2nn(P(=O)(O)O)c(=O)[nH]2)[C@H]1c1ccc(F)cc1)c1cc(C(F)(F)F)cc(C(F)(F)F)c1 [Fosaprepitant dimeglumine]; 7000
O=C1NC(c2ccccc2)(c2ccccc2)C(=O)N1COP(=O)(O)O; 77

Could you now look at the following molecule, please?
Q) State its EC50 on MRGPRX4 (S83) (Homo sapiens, UniProt Q96LA9, L83S): C[C@]12C=CC(=O)C=C1CC[C@@H]1[C@@H]2[C@@H](O)C[C@@]2(C)[C@H]1CC[C@]2(O)C(=O)COP(=O)(O)O [Prednisolone phosphate]
A) 267
